# Test system: M14 melanoma
# TEST SUMMARY: NCI-60 one-dose screen, 48 h
# REPORTED CONDITIONS: 10 µM unless noted
About 83,000 compounds went through this panel and 20% of them were active in at least one assay; those are over-represented in the sample as a whole. The source made the active and inactive calls. How the source made its calls: active means growth percent below 10; inactive means the rest.
Please state which outcome applies, choosing from active, inactive

Consider the following illustrative entries.
O=S(=O)(NCCCNc1cc(-c2cn(-c3ccccc3)nc2-c2cccc(O)c2)ccn1)c1ccc(Cl)cc1
active
CCn1cc(C(=O)O)c(=O)c2cc(F)c(N3CCN(S(=O)(=O)c4ccc(OC)c(OC)c4)CC3)cc21
inactive
O=S(=O)(NCCNc1cc(-c2cn(-c3ccccc3)nc2-c2ccccc2)ccn1)c1cccc2ccccc12
inactive

Just curious, what result did `COc1ccc(NC(=O)CSc2nc3ccccc3c(=O)n2Cc2cc(OC)c(OC)c(OC)c2)cc1` get here?
inactive
